Where do the numbers come from? From PubChem BioAssay (EPA / NIEHS).

- Read-out: MYC, MYC (gene 4609)
- measurement.description: LTEA_HepaRG_MYC: Life Technologies and Expression Analysis (LTEA) Assay for MYC using HepaRG (AID 2283518)
- applied.conditions: mRNA level, 48 h; actives raise or lower the signal
Activity calls are given as the source filed them. The calls were made as follows: active = hit-call score of the fitted dose curve at least 0.9, where 1 is the maximum; inactive = score below 0.9.
Labels: yes (1) (active), no (0) (inactive)

                                    compound  class_label
 0                            CCNc1cccc(C)c1       no (0)
 1  CCc1c(C(=O)NN2CCCCC2)nn(-c2ccc(Cl)cc2Cl)c1-c1ccc(Br)cc1      yes (1)
 2  NC(=O)Cn1c(=O)cc(CCN2CCN(c3nccc4sccc34)CC2)c2ccc(F)cc21       no (0)
 3                 CC(=O)OC/C=C(\C)CCC=C(C)C       no (0)
 4                                CCCCCCOCCO       no (0)
 5  C[Si]1(C)O[Si](C)(C)O[Si](C)(C)O[Si](C)(C)O1       no (0)
 6  Cc1nc(C)nc(N2C[C@@H](C)N(c3ccnc([C@@H](C)O)n3)[C@@H](C)C2)n1       no (0)
 7           Nc1ccc(S(=O)(=O)c2ccc(N)cc2)cc1       no (0)
 8                            CCCCCCC(=O)OCC       no (0)
 9                                CCCCCCCC=O       no (0)
10     CC(C)c1ccc(C(=O)N=C(N)N)cc1S(C)(=O)=O      yes (1)
11  Cc1c(C(=O)O)c(O)cc2c1C(=O)c1c(O)c([C@@H]3O[C@H](CO)[C@@H](O)[C@H](O)[C@H]3O)c(O)c(O)c1C2=O       no (0)
12  COCCOC[C@H](CC1(C(=O)NC2CCC(C(=O)O)CC2)CCCC1)C(=O)Oc1ccc2c(c1)CCC2 (stereo partly specified)       no (0)
13                               CCCCCCCCCCO       no (0)
14        NS(=O)(=O)c1cc2c(cc1Cl)NCNS2(=O)=O       no (0)
15  Cc1cc(NC(=O)C(=O)O)cc(C)c1Oc1ccc(O)c2c1CCC2       no (0)
16              CCCCOC(=O)CCCCCCCCC(=O)OCCCC       no (0)
17  FC(F)(F)C(F)(F)C(F)(F)C(F)(F)C(F)(F)C(F)(F)CCI       no (0)
18                           Cc1ccc2ncccc2c1       no (0)
19  Nc1nc(N)c2nc(CNc3ccc(C(=O)N[C@@H](CCC(=O)O)C(=O)O)cc3)cnc2n1       no (0)
20                          O=C(O)CCCCC(=O)O       no (0)
